- EXPERIMENT_DESCRIPTION: yeast display, Sf9 membrane polyspecificity reagent, FACS + sequencing; frameworks hold sequencing errors
READOUT_NAME: polyreactivity (PSR sort gate)

Worked set:
1) QVQLVESGGGLVQAGGSLRLSCAASGSTFSYNDMGWYRQAPGKESELVADINVSVGRTYYADSVKGRFTISRDNAKNTVYLQMNSLTPEDTAVYYCNATLYTITSYVYAYDYWGQGTQVTVSS; low polyreactivity
2) QVQLVDSGGGLVQAGGSLRLSCAASGRTFWIYAMGWYRPAPGKERELVAAISRGGSTYADSVKGRFTISRDNAKNTVYLQMNSLKPEDTAVYYCAASTPQYQYYYWGQGTQVTVSS; high polyreactivity
3) QVQLVASGGGLDQAGGSLRLSCAASGFPFQENAMGWYRQAPGKERELVAAISYGGGSPSYADSVKGRFTISRDNAKNTVYVQMNSLKPEDNAVYYCAADGGSAYAWYFAELYGYWGQGTQVTVSS; low polyreactivity
4) QVQLVESGGGLVQAGGSLRLRCAASGSTFWSYAMGWYRQAPGKERELVATITRAGTTNYADSVKGPFTISRDNAKNTVYLQMNSLKPEDTAVYYCAKRKFRWPYQGSYSYIPFGYWGQGTQVTVSS; high polyreactivity
5) QVQLVESVGGLVQAGGSLRLSCAASGGIFQPNAMGWYRQAPGKERELVATISQRGGSPYYSDSVKGRFTISRDNAKNTVYLQMNSVKPEDTAVYYCAAEVYYYYDAIYIARYEYWGQGTQVTVSS; low polyreactivity
6) QVQLVESGGGLVQAGGSLRLSCAASGSTFGSYAMGWYRQAPGGERELVAAISWNGGRTYYADSVKGRFTISRDNAKNTVYLQMNSLKPEDTAVYYCAKVVKYQSGGGLEYWGQGTQVTVSS; high polyreactivity
7) QVQLVESGGGLVQAGGSHRLSCAASGRTFRPYAMGWYRQAPGKERELVAAITGGTRKYYADSVKGRFTISRDNAKNSVYLQMNSLKPEVTAVYSCAKGDFFSKHDYRGQGTQVTVSS; low polyreactivity
8) QVQLVESGGGLVQAGGSLRLSCAASGSTFVKNSMGLYRQAPGKERELVAVISWPGSSTYYADSVKGRFTISRDNAKNTDYLQMISLKPEDTAVYYCNAPKIRPGSHTRHYYWGQGTQVTVSS; low polyreactivity

stdin: Give polyreactivity (PSR sort gate) for the following sequence: QVQLVESGGGLVQAGGSLRLSCAASGSTFDGNTMGWYRQAPGKERELVAAISGSGGSTYYADSVKGRFTISRDNAKKTVYLQMNSLKPEDTAVYYCAARRIHTTSSRGYYWGQGTQVTVSS
stdout: high polyreactivity

stdin: Give polyreactivity (PSR sort gate) for the following sequence: QVQLVESGGGLVQAGGSLRLSFAASARTFYIYPMGWYRQAPGKERELVAAITYGGGRTFYADSVKGRFTISRDNANNTVYLQMNSLKPEDTAVYYCAATVRGKRSTYDYWGQGTQVTVSS
stdout: high polyreactivity

stdin: Give polyreactivity (PSR sort gate) for the following sequence: QVQLVESGGGLVQAGGSLRLSCAASGSTFSANTKGWYRQAPGTERELVAGITNTGDTYYADSVKGRFTISRDNAKNTVYLQMNSLKPEDTAVYYCAADSWRRTDGAYWSTVYYWGQGTQVTVSS
stdout: low polyreactivity

----------
- EXPERIMENT_DESCRIPTION: yeast display, Sf9 membrane polyspecificity reagent, FACS + sequencing; frameworks hold sequencing errors
READOUT_NAME: polyreactivity (PSR sort gate)

Worked set:
1) HVQLVESGGGLVQAGGSLRLSCAASGITLTIYVMGGYRQAPGKERELVAAISTSGGSTYYADSVKGRFTISRDNAKNTDYLQMNSLKPEDTAVYYCNATPLRRYYGRYLMDYWGQGTQVTVSS; high polyreactivity
2) QVQLVESGGGLVQAGGSLRLSCAASGSIFPRYAMGWYRQAPGKERELVATISQSGGSTYYADSVKGRFTISRDSAKNTVYLQMNSLKPEDTAVYYCAAKVYRSAYYVGKYYPYYYWGQGTQVTVSS; high polyreactivity
3) QVQLVESGGGLVQAGGSLRLSCAASGSIFVGYAMGWYRQAPGKERDLVAAIDSTVSTYYADSVKGRFTISRDNAKNTVYLQMNSLKPEDTAVYYCAAYPRPDIGYTDGYVWYEFDYWGQGTQVTVSS; low polyreactivity
4) QVQLVESGGGLVQAGGSLRISCAASASIFPQYALGWYRQAPGKERELVAGISGSGGGTYYADSVKGRFTISRDNAKNTVSVQIHSLKPEDTAVYYCYDYWRQGTQVTVSS; low polyreactivity

Next sequence, please.
stdin: Give polyreactivity (PSR sort gate) for the following sequence: QVQLVESAGGLVQAGGSLRLSCAASGSIFSRNAMGWYRPAPGKERELVAAITWSGGSTYYADSVKGRFTISRDNAKNTVYLQMNSLKPEDTAVYYCNAKRSSRIKQLEYDYWGQGTQVTVSS
stdout: high polyreactivity

----------
- EXPERIMENT_DESCRIPTION: yeast display, Sf9 membrane polyspecificity reagent, FACS + sequencing; frameworks hold sequencing errors
READOUT_NAME: polyreactivity (PSR sort gate)

Worked set:
1) QVQLVESGVGLVQAGGSLRLSCAASGSIFGYNDMGWYRQAPGKERELVAVITSGGSTNYADSVKGRFTISRDNAKNTVYLQMNSLKPEDTAVYYCNAEGVFGDGRSGFYWYDYWGQGTQVTVSS; low polyreactivity
2) QVQLVESGGGLVQAGGSLRLSCAASGRTFPFYAMGWYRQPPAKERELVAVITWRGSNTYADSVKGRFTISRDNAKNTVYLQMNSLKPEVTAVYYCAADAWRSYGYRAYDYWGQVTQVTVSS; low polyreactivity
3) QVQLVETGGGLVQAGGSLRLSCAASGFTFFYYDMGWYRQAPGKERELVADITTGGSTNYADSVKGRFTISRDNAKNTVYFQMNSLKTEDTAVYYCAAATTYPYGYYYWGQGTEVTVSS; high polyreactivity
4) QVQHVESGGGLVQAGGSLRLSCAASGRTLIYNAMGWYRQAPGKERELVAAITGGGGRTYYADSVKGRFTISRDNAKNTVYLQMNSLKPEDTAVYYCAVAGTVLSHMGYWGQGTQVTVSS; low polyreactivity
5) QVQLVESGGGLVQAGGSLRLSCAASGRTIRSYAMGRSRQAPGKEREWVAAISWSGGRTYYADSVKGRFTISRDNAKYTVYLQMTSLKPEDTADYYCAARVSVGVPRYEYWGQGTQVTVSA; high polyreactivity
6) QVQLVESGGGLVQAGGSLRLSCAASGSILTVYAMGWYRQAPGKERELVAAITSSGGITYYADSVKGRFTISRDNAKNTVYLQMHSLKPEDTAVYYCAAYGYGSNYRYTGYYYWGQGTQVTVSS; low polyreactivity
7) QVQLQESGGGLVQAGGSLRLSCAASGYIFVDYTMGWHRQAPGKERELVATINLGATSYYADSVKGRFTISRDNAKNTVYQQMNSLKPEDTAVYYCAVALQQVNYFPYWCQGTQVTVSS; low polyreactivity
8) QVQLVESGGGLVQARGSRRLSCAASGLTFVPTAMGWYRQAPGKEREFVAAISNNGGRKYYADSVKGRFTISRDNAKNRVYLQINSLKPDDTAVYYCAKYLSPGERHSYDYWGQGTQVTVSS; high polyreactivity

stdin: Give polyreactivity (PSR sort gate) for the following sequence: QVQLVESGGGLVQAGGSLRLSCAASGSTSILYAMGWYRQAPGKERELVAAISRSGGSTYYADSVKGRFTISRDNAKNTVYLQMNSLKPEDTAVYYCAAQWVYQYGFNYWGQGTQVTVSS
stdout: high polyreactivity

stdin: Give polyreactivity (PSR sort gate) for the following sequence: QVQLVESGGGLVQAGGSLRLSCAASGSILDSYAMGWDRQAPGKERELVAASTRSGVRTYYADSVKGRFTISRDNAKNTVYLQMNSLKPEDTAVYYCAARVTRYRDLNYWGQGTQVTVSS
stdout: high polyreactivity

----------
- EXPERIMENT_DESCRIPTION: yeast display, Sf9 membrane polyspecificity reagent, FACS + sequencing; frameworks hold sequencing errors
READOUT_NAME: polyreactivity (PSR sort gate)

Worked set:
1. QVQLVESGGGLVQAGGSLRLSCAASGSTLYPNAMGWYRHAPGKERELVAAISSGSSTYADSVKGRFTISRDNAKNTVYLQMNSLKPEDTAVYYCNADSRIHYDYWGQGTQLTVSS; low polyreactivity
2. QVQLVESGGGLVQAGGSLRLSCAASRIFFNGYAMGWYRQAHGSERELVAAITVSGGRTFYADSVKGRFTISRDNAKNTVYLQMNSLKPEDTAVYYCNAVPRRVRLYDYWGQGTQVNVSS; high polyreactivity
3. QVQLVESGGGLVQAGGSLRLSCAASGSIFRQYAMGWYRQAPGKERELVAAIRSGGSTYYADSVKGRFTISRDNAKNTVYLQMNSLKPEDTAVYYCATRYHWSGYYYWGQGTQVTVSS; high polyreactivity
4. QVQLVESGGGLVQAGGSLRLSCAASGFTFGRYAMGWYRQAPGKERELVAAINYTDGSTYYADSVKGRFTISRDNAKNTVYLQMNSLKPEDTAGYYCAATTLSFEGGKYWSKYDYWGQGTQVTVSS; low polyreactivity

Next sequence, please.
stdin: Give polyreactivity (PSR sort gate) for the following sequence: QVQLVESGGGLVQAGGSLRLSCAASGGTFYVYDMGWYRQTPGKEREFVADINFSTGITYYADSVKGRFTISRDNAKNTVYLQMNSLKPEDTAVYYCNADTAFYVYWYWIYDYWGQGTQVTVSS
stdout: high polyreactivity
